The reported numbers originate from PubChem BioAssay (NCI).

# Test system: LOX IMVI melanoma
# PROTOCOL_TEXT: NCI-60 one-dose screen, 48 h (100 = growth as untreated, 0 = no growth, -100 = all killed)
# SETUP_CONDITIONS: 10 µM unless noted
The panel holds about 83,000 compounds, 20% with a hit somewhere; the sample as a whole holds those more often.
growth by entry:
Could you give me the number in %? Just the number is fine.

COC(=O)[C@H](C)NC(=O)[C@@H](OC)[C@@H]1Cc2cc3cc(OC4CC(OC5CC(O)C(O)C(C)O5)C(O)C(C)O4)c(C)c(O)c3c(O)c2C(=O)[C@H]1OC1CC(OC2CC(OC3CC(C)(O)C(O)C(C)O3)C(O)C(C)O2)C(O)C(C)O1 (some centres undefined) :: -27.4
CCC1(/C=N/NC(N)=S)NC(=O)NC1=O (centres undefined) :: 102
CCc1cc2c(c3ccc(C(=O)CBr)cc13)CCCC2 :: 93.3

Lab note: next molecule to report on.
molecule "O=C1NC(=O)[C@@H](c2cn3c4c(cccc24)CCC3)[C@@H]1c1c[nH]c2ccccc12" , growth observed: 19.2
